system: Caco-2; experiment: cell viability relative to DMSO; higher = less toxic; conditions: 72 h; 100 nM
# note: exactly 90% is not below, so it is false (0); use true (1) for cell viability strictly under it

Solved cases below.
> print(dat)
                                   compound  target.or.test.system   category
1  CC(C)C[C@H](NC(=O)[C@H](Cc1ccccc1)NC(=O)c1cnccn1)B(O)O [bortezomib]                 Caco-2   true (1)
2  O=S(=O)(Cc1ccccc1)Nc1ccc(-c2ccc3c(cnn3-c3ccc(F)cc3)c2)c(C(F)(F)F)c1 [GSK9027]                 Caco-2  false (0)

Prompt line: Bench note: check whether O=C(O)[C@H]1CCCN(CCC=C(c2ccccc2)c2ccccc2)C1 (racemic) shows cell viability below 90%
Response line: false (0)

Prompt line: Bench note: check whether CCOCCn1c(N2CCCN(C)CC2)nc2ccccc21 [emedastine] shows cell viability below 90%
Response line: false (0)

Prompt line: Bench note: check whether CCn1cc(C(=O)O)c(=O)c2ccc(-c3ccncc3)cc21 [rosoxacin] shows cell viability below 90%
Response line: false (0)

---

tested on: Caco-2; assay: drug sensitivity score (DSS) for viability; higher = more toxic; extreme values may be limits of the assay; settings: 72 h
Examples of compounds with documented drug sensitivity score follow.
# output: bare number, no unit

Some solved entries appear below for comparison.
> print(dat)
                                   compound  number
1  Cc1n[nH]c(C)c1Cc1sc2c(c1C(=O)N1C[C@H](O)CO1)c(=O)n(C)c(=O)n2CC(C)C    10.2
2  NC(=O)c1cccc(-c2cc(Nc3ccc(OC(F)(F)F)cc3)ncn2)c1     1.3
3  O=C(O)[C@H]1CCCN(CCC=C(c2ccccc2)c2ccccc2)C1 (racemic)       0

Prompt line: Fill in the recorded drug sensitivity score for this compound, with Caco-2 as test system: C=C1C(=O)O[C@@H]2C[C@@]3(C)CCC[C@H](C)C3=C[C@H]12
Response line: 0

Prompt line: Fill in the recorded drug sensitivity score for this compound, with Caco-2 as test system: CC1(C)OC(=O)C(OCC2CC2)=C1c1ccc(S(C)(=O)=O)cc1
Response line: 3.5

Prompt line: Fill in the recorded drug sensitivity score for this compound, with Caco-2 as test system: CCCCCCCCCCC(CO)CCCCCCCC (centres undefined)
Response line: 0

Prompt line: Fill in the recorded drug sensitivity score for this compound, with Caco-2 as test system: COc1ccc(CNC(=O)Nc2ncc([N+](=O)[O-])s2)cc1
Response line: 0.9

Prompt line: Fill in the recorded drug sensitivity score for this compound, with Caco-2 as test system: C=CCNc1ncnc2ccc(Br)cc12
Response line: 0

Prompt line: Fill in the recorded drug sensitivity score for this compound, with Caco-2 as test system: CC[C@H](NC(=O)c1c(O)c(-c2ccccc2)nc2ccccc12)c1ccccc1
Response line: 0

---

system: U2OS; test: cell viability relative to DMSO; higher = less toxic; settings: 72 h; 100 nM
REPORTED_PROPERTY: cell viability (%)
Response body: numeric value in %, unit text excluded.

COMPOUND	NUMBER
c1ccc2c(c1)OC[C@H](CNCCCOc1ccc3c(c1)OCO3)O2	96.9
CCC(=O)O[C@]1(C(=O)COC(C)=O)CC[C@H]2[C@@H]3C[C@H](C)C4=CC(=O)C=C[C@]4(C)[C@H]3[C@@H](O)C[C@@]21C [methylprednisolone-aceponate]	98.5
O=c1ccc2cc3ccoc3cc2o1	97.8
COc1nccnc1NS(=O)(=O)c1ccc(N)cc1	104

Prompt line: Please look up its cell viability: c1cc2c(cc1[C@H]1OC[C@H]3[C@@H]1CO[C@@H]3c1ccc3c(c1)OCO3)OCO2
Response line: 102

Prompt line: Please look up its cell viability: Nc1nc(Nc2ccc(S(N)(=O)=O)cc2)nn1C(=O)c1c(F)cccc1F
Response line: 100

Prompt line: Please look up its cell viability: Nc1ccc(C(=O)O)cc1 [potassium-p-aminobenzoate]
Response line: 94.4

Prompt line: Please look up its cell viability: O=C(NCCN1CCN(c2ncccn2)CC1)C12CC3CC(CC(C3)C1)C2
Response line: 97.8

Prompt line: Please look up its cell viability: C[C@@](Cc1ccc(O)c(O)c1)(NN)C(=O)O
Response line: 92.8

---

Examples of compounds with documented cell viability follow.
system: Calu-3; assay: cell viability relative to DMSO; higher = less toxic; details: 72 h; 10 nM
Response body: numeric value in %, unit text excluded.

Some solved entries appear below for comparison.
COMPOUND	cell viability [%]
CCCCCCCCCCCCCCC[C@@H](O)[C@@H](N)CO	96.8
CCOc1nc2cccc(C(=O)OC(C)OC(=O)OC3CCCCC3)c2n1Cc1ccc(-c2ccccc2-c2nn[nH]n2)cc1 (stereo unspecified)	105

Prompt line: Please look up its cell viability: C[C@]12CC[C@H](O)CC1=CC[C@@H]1[C@@H]2CC[C@]2(C)C(=O)CC[C@@H]12
Response line: 81.2

Prompt line: Please look up its cell viability: O=c1[nH]cnc2nc[nH]c12
Response line: 90.3

Prompt line: Please look up its cell viability: Nc1nc(N)c2nc(-c3ccccc3)c(N)nc2n1
Response line: 101

Prompt line: Please look up its cell viability: C=CCc1cc(OC)c(O)c(C(=O)NCCO)c1 [alibendol]
Response line: 99.3

Prompt line: Please look up its cell viability: CC(=O)N1CC[N+](C)(C)CC1
Response line: 101

Prompt line: Please look up its cell viability: Cc1n[nH]c(C)c1Cc1sc2c(c1C(=O)N1C[C@H](O)CO1)c(=O)n(C)c(=O)n2CC(C)C
Response line: 86.3

Prompt line: Please look up its cell viability: CC(CCc1ccccc1)NCC(O)c1ccc(O)c(C(N)=O)c1 (stereo unspecified)
Response line: 107

Prompt line: Please look up its cell viability: COc1cnc(NS(=O)(=O)c2ccc(N)cc2)nc1
Response line: 96.4

Prompt line: Please look up its cell viability: CCc1nc2ccc(Cl)cn2c1C(=O)NCc1ccc(N2CCC(c3ccc(OC(F)(F)F)cc3)CC2)cc1
Response line: 100

Prompt line: Please look up its cell viability: CC[C@H](C)[C@H]1O[C@]2(CC[C@@H]1C)C[C@@H]1C[C@@H](C/C=C(\C)[C@@H](O[C@H]3C[C@H](OC)[C@@H](O[C@H]4C[C@H](OC)[C@@H](O)[C@H](C)O4)[C@H](C)O3)[C@@H](C)/C=C/C=C3\CO[C@@H]4[C@H](O)C(C)=C[C@@H](C(=O)O1)[C@]34O)O2
Response line: 107

Prompt line: Please look up its cell viability: CC[C@@H]1C(=O)N(C)c2cnc(Nc3ccc(C(=O)N[C@H]4CC[C@H](N5CCN(CC6CC6)CC5)CC4)cc3OC)nc2N1C(C)C
Response line: 86.8

Prompt line: Please look up its cell viability: Nc1ccc(C(=O)O)cc1 [potassium-p-aminobenzoate]
Response line: 97.1

Prompt line: Please look up its cell viability: Cc1c(CC(C)(C)C(=O)O)n(Cc2ccc(Cl)cc2)c2ccc(F)cc12
Response line: 102

Prompt line: Please look up its cell viability: c1cc2c(cc1[C@H]1OC[C@H]3[C@@H]1CO[C@@H]3c1ccc3c(c1)OCO3)OCO2
Response line: 103

---

system: Vero E6; test: cell viability relative to DMSO; higher = less toxic; settings: 72 h; 10000 nM
Examples of molecules with documented cell viability follow.
Response body: numeric value in %, unit text excluded.

MOLECULE	TARGET_OR_TEST_SYSTEM	READOUT_UNIT	cell viability
CC[C@@H]1C(=O)N(C)c2cnc(Nc3ccc(C(=O)N[C@H]4CC[C@H](N5CCN(CC6CC6)CC5)CC4)cc3OC)nc2N1C(C)C	Vero E6	%	1.5
O=C(NCc1ccc2c(c1)OCO2)c1c(Cl)cccc1Cl	Vero E6	%	98.3
NCCCCCCCCCCNS(=O)(=O)c1cccc2c(Cl)cccc12	Vero E6	%	94.7
CCOc1ccc(-c2ccc(Cn3c(CC(C)(C)C(=O)O)c(SC(C)(C)C)c4cc(OCc5ccc(C)cn5)ccc43)cc2)cn1	Vero E6	%	76.1
CC(C)C[C@@H](C(=O)N[C@H](C(=O)OC1CCCC1)c1ccccc1)[C@H](O)C(=O)NO	Vero E6	%	106

Prompt line: Please look up its cell viability: O/N=C/c1ccc(-c2ccc(O)c(F)c2)c(Cl)c1O
Response line: 95.7

Prompt line: Please look up its cell viability: C=C1C(=O)O[C@@H]2C[C@@]3(C)CCC[C@H](C)C3=C[C@H]12
Response line: 101

Prompt line: Please look up its cell viability: C=C1/C(=C\C=C2/CCC[C@]3(C)[C@@H]([C@H](C)/C=C/[C@H](C)C(C)C)CC[C@@H]23)C[C@@H](O)C[C@@H]1O
Response line: 106

---

Examples of compounds with documented cell viability follow.
tested on: Calu-3; test: cell viability relative to DMSO; higher = less toxic; details: 72 h; 100 nM
Response body: numeric value in %, unit text excluded.

> print(dat)
                                   compound  number
1                       CCCc1ccc(C(=O)O)cc1     101
2  c1ccc(-c2cnn3cc(-c4ccc(OCCN5CCOCC5)cc4)cnc23)cc1    89.6
3  CCOC(CN1CCN(CC(C)C(=O)c2ccccc2)CC1)c1ccccc1 (stereo not given)    95.6

Prompt line: Please look up its cell viability: O=C(O)c1cc([N+](=O)[O-])ccc1NCCCc1ccccc1
Response line: 101

Prompt line: Please look up its cell viability: CC1(C)OC(=O)C(OCC2CC2)=C1c1ccc(S(C)(=O)=O)cc1
Response line: 95.6

Prompt line: Please look up its cell viability: NCCCCCCCCCCNS(=O)(=O)c1cccc2c(Cl)cccc12
Response line: 96.5

Prompt line: Please look up its cell viability: Oc1ccc([C@H]2COc3cc(O)ccc3C2)cc1
Response line: 99.2
